- Test Target: T1, Source 2 VEGF-D, purified recombinant human VEGF-D monomer (R&D Systems, Catalog Number 622-VD/CF) (human, UniProt O43915 93-201)
- T1 construct: Bought protein; Whole entry named; also called Source 2 VEGF-D Monomer
- T1 sequence: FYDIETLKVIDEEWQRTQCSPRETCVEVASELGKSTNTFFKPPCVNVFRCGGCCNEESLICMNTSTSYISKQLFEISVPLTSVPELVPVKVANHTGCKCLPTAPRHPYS
- Procedure Details: SPR, IgG captured by anti-human IgG (Fc), Source 2 VEGF-D monomer as analyte
Each record here notes measured koff.
Reply numerically in s⁻¹, unit not repeated.

Below, each entry is followed by its recorded koff result.
Binder	koff / s⁻¹
humanized IgG antibody derived from clone DI26 (antibody, V domains shown, IgG) VH: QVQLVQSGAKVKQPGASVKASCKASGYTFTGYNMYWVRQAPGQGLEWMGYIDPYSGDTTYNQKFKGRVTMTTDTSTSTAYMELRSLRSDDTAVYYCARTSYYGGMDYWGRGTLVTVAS VL: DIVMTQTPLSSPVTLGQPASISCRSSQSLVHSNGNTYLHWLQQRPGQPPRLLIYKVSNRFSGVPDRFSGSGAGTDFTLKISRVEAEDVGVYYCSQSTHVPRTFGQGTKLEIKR	0.0041
humanized IgG antibody derived from clone AW61 (antibody, V domains shown, IgG) VH: QVQLVQSGAEVKQPGASVKVSCKASGYTFTGYNMYWVRQAPGQGLEWMGYIDPYNGDTTYNQKFKGRATMTTDTSTSTAYMKLRSLRSDDTAVYYCARTSYYGGMDYWGRGTLVTVAS VL: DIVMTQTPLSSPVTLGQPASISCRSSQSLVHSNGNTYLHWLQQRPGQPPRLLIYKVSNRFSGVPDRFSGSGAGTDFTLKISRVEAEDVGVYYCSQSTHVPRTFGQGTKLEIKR	0.00725
humanized IgG antibody derived from clone F61 (antibody, V domains shown, IgG) VH: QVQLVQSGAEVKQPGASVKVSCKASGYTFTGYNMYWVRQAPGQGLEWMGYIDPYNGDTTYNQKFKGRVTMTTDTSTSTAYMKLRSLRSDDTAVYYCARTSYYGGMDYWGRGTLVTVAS VL: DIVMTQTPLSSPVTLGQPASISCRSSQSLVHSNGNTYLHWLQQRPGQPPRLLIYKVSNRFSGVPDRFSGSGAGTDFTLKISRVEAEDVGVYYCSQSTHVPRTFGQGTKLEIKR	0.00824
Ig-1A, humanized IgG reformatted from scFv 1A (antibody, V domains shown, IgG made in mammalian cells; also called humanized Ig-1A) VH: QVQLVQSGAEVKQPGASVKVSCKASGYTFTGYNMYWVRQAPGQGLEWMGYIDPYNGDTTYNQKFKGRVTMTTDTSTSTAYMELRSLRSDDTAVYYCARTSYYGGMDYWGRGTLVTVAS VL: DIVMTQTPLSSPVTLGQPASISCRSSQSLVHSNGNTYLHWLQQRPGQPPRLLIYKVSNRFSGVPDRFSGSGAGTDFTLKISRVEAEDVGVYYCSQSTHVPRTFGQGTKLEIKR	0.00678

Lookup: GET /values?readout=koff&item= humanized IgG antibody derived from clone A63 (antibody, V domains shown, IgG) VH: QVQLVQSGAKVKQPGASVKASCKASGYTFTGYNMYWVRQAPGQGLEWMGYIDPYNGDTTYNQKFKGRVTMTTDTSTSTAYMELRSLRSDDTAVYYCARTSYYGGMDYWGRGTLVTVAS VL: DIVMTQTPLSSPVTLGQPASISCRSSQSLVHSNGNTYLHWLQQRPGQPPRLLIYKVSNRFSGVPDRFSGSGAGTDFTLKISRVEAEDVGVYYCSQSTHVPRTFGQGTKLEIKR
Found: 0.00677

Where these numbers come from: patent US20120093811A1
